target: Albumin (Homo sapiens, UniProt P02768); assay: Binding affinity to human serum albumin assessed as quenching constant by Stern-Volmer plot analysis; format: ADME, cell-free
Sequence (P02768 whole entry): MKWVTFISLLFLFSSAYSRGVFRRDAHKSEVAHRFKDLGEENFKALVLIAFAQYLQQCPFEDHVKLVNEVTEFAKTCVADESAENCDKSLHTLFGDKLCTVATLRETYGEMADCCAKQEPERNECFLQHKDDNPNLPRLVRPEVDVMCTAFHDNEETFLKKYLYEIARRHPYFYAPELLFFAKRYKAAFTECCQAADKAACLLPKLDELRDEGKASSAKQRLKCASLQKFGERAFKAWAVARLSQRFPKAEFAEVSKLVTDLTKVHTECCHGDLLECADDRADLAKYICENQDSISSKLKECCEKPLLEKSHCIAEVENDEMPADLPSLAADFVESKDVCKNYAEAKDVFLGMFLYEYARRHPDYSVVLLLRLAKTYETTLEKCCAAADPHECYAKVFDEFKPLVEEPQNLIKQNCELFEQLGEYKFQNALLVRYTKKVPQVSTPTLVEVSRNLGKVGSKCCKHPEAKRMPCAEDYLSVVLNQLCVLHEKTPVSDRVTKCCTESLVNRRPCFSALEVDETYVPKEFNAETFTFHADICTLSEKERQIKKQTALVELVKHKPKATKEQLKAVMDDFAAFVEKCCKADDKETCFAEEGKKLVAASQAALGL
ATTRIBUTE MEASURED: KSV

- LINE NOTATION: "C/C=C(\\C)C(=O)O[C@H](C)C[C@@H]1CCCN1C(=O)CCCCCCCCC"
  ATTRIBUTE MEASURED: "KSV"
  ENDPOINT RESULT: "3 10^4/M"
- LINE NOTATION: "C/C=C(\\C)C(=O)O[C@@H](C)C[C@@H]1CCCN1C(=O)CCCCCCCCC"
  ATTRIBUTE MEASURED: "KSV"
  ENDPOINT RESULT: "3 10^4/M"
- LINE NOTATION: "C/C=C(\\C)C(=O)O[C@H](C)C[C@H]1CCCN1C(=O)CCCCCCCCC"
  ATTRIBUTE MEASURED: "KSV"
  ENDPOINT RESULT: "7.2 10^5/M"
- LINE NOTATION: "C/C=C(\\C)C(=O)O[C@@H](C)C[C@H]1CCCN1C(=O)CCCCCCCCC"
  ATTRIBUTE MEASURED: "KSV"
  ENDPOINT RESULT: "1.3 10^5/M"

Ref: ChEMBL document CHEMBL4699560
